# assayed.system: CYP2C8 (Homo sapiens, UniProt P10632)
# Sequence (P10632 whole entry): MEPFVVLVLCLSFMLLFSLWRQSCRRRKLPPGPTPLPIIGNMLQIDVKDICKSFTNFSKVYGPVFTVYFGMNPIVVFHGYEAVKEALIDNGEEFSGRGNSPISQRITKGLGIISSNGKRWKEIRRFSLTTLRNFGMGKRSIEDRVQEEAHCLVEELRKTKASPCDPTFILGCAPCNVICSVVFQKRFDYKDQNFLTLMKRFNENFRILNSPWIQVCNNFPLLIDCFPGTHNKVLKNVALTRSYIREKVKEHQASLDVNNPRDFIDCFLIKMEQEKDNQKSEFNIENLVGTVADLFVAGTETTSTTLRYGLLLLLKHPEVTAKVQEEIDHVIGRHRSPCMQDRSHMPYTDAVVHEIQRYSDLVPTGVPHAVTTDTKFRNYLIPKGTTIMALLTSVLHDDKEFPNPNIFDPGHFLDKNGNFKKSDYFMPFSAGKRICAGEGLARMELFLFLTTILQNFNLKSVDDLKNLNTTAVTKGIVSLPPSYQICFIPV
pIC50: −log10 of the molar value.
reported.property: pIC50

1) CCN1C(=O)N(c2c(F)c(OC)cc(OC)c2F)Cc2cnc3[nH]c(CN4CCOCC4)cc3c21
< 4.60

---

# assayed.system: RET (Homo sapiens)
# Sequence (P07949 29-1114, species assumed): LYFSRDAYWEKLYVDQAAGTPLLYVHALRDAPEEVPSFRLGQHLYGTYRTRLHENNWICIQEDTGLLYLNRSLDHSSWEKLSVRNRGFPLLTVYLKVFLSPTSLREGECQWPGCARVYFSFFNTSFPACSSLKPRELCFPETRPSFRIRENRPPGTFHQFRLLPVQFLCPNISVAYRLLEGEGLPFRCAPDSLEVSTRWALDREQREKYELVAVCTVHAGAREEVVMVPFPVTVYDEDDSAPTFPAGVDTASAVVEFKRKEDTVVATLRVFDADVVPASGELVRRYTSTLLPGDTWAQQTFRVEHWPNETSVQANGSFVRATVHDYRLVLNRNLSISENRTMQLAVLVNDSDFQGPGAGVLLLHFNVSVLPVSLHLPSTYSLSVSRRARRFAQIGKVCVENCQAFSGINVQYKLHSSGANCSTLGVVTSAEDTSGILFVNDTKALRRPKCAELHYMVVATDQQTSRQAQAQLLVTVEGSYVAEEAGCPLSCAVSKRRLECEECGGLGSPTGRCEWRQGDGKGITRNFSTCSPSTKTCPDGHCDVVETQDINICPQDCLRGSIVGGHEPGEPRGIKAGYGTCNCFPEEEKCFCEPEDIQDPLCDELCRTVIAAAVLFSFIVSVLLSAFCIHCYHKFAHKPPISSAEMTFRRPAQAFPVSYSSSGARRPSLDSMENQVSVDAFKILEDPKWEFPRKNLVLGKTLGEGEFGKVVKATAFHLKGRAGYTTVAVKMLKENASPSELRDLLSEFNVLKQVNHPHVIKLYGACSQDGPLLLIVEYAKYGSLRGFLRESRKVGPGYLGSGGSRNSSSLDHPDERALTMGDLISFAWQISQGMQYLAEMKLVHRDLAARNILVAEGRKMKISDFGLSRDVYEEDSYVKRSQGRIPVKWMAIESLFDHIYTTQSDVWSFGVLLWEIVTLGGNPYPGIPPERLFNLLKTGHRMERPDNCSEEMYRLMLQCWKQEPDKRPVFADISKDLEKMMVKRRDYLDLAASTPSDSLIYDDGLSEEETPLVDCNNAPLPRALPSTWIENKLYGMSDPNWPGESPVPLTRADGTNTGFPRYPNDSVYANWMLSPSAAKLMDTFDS
reported.property: IC50

1) CCN1C(=O)N(c2c(F)c(OC)cc(OC)c2F)Cc2cnc3[nH]c(CN4CCOCC4)cc3c21
> 10 µM

---

# protocol.text: Pharmacokinetic analyses
# Assay type: in vivo, cynomolgus monkeys
# condition: cynomolgus monkey, plasma; male monkey, oral 2 mg/kg
# Method: The i.v. formulation in dogs and monkeys was 5% DMAC and 20% sulfobutyl ether β-cyclodextrin in saline. The oral formulation in all species was 5% DMAC in 0.5% methylcellulose aqueous solution. For rats, blood samples were collected at predose, 5 (i.v. dosing only), 15, and 30 minutes, and 1, 2, 4, 6, 8, and 24 hours. […] The plasma was protein precipitated and the diluted supernatant was analyzed using LC/MS/MS. […] The pharmacokinetic parameters were determined using WinNonLin 6.3.
reported.property: bioavailability (%)

1. CCN1C(=O)N(c2c(F)c(OC)cc(OC)c2F)Cc2cnc3[nH]c(CN4CCOCC4)cc3c21
29
